metric_name: melting point

In the examples that follow, each entry is paired with its recorded melting point.
{"columns": ["molecule", "melting point"],
 "data": [
  ["NC(=O)c1cccc(OCc2cccc(O)c2)c1", "122 to 123 °C"],
  ["CC(C)(C)c1cc(CCC(=O)Nc2ccc(S(=O)(=O)NCCBr)cc2)cc(C(C)(C)C)c1O", "153 to 155 °C"],
  ["COc1cc(Cl)c([N+](=O)[O-])cc1OC", "103 to 105 °C"],
  ["O=C(Nc1cccc(Oc2cccc(C(=O)O)c2)c1)NC12CC3CC(CC(C3)C1)C2", "152 to 154 °C"]
]}

Report melting point for every entry below.
1. Nc1ccn(CC2CC2)c(=O)n1
2. COC(=O)c1[nH]c2c(C)ccc(C)c2c1Cl
3. CC1(C)OC(C(F)(F)F)Nc2ccc(-c3cccc(Cl)c3)cc21 (stereo unspecified)
4. COC(=O)CCc1cnoc1-c1ccc(Cl)cc1

A)
1: 264 to 266 °C; 2: 115 to 116 °C; 3: 108 to 109 °C; 4: 51 to 52 °C

====

For each entry below, report its melting point value.
Numbers only, in °C.

In the examples that follow, each entry is paired with its recorded melting point.
{"columns": ["mol", "melting point (°C)"],
 "data": [
  ["O=C(O)c1ccc(C=CC(=O)N2CCCCC2)cc1", 257],
  ["O=c1[nH]ncn1-c1ccc(I)cc1", 258],
  ["Cn1ncc(C(=O)N2CCC2)c1C(=O)Nc1ccc2nc(-c3cccnc3)nn2c1", 272]
]}

Okay, now this compound:
Q) Answer with reported melting point of CC1(C)CCCC(C)(C)N1OCc1ccccc1C(=O)ON1C(=O)CCC1=O
A) 145

====

For each entry below, report its melting point value.

In the examples that follow, each entry is paired with its recorded melting point.
{"columns": ["compound", "melting point"],
 "data": [
  ["CCCCCCCCCCCCc1c(C(=O)OCC)[nH]c(C)c1C", "70 to 71 °C"],
  ["O=C(NCCCCn1cncn1)c1sc2ccccc2c1Cl", "103 to 105 °C"]
]}

Report melting point for every entry below.
1. O=[N+]([O-])c1c(Cl)cccc1-c1nn(CO)cc1Cl
2. NC(=O)Cc1ccc(OCCc2coc(-c3ccccc3)n2)cc1
3. COC(=O)c1nc2c(CBr)cccc2n1COCC[Si](C)(C)C

A)
1: 146 °C; 2: 180 to 184 °C; 3: 85 to 86 °C

Report melting point for every entry below.
1. CCOC(=O)C1=C(C)NC(C)=C(C(=O)OCCSC(C)=O)C1c1cccc([N+](=O)[O-])c1 (stereo not given)
2. CCCCc1ccc(-n2c(-c3ccc(SC)cc3)nc(SC)c(C#N)c2=O)cc1
3. CC1=C(C=O)C(C)(C)c2c(C)c(C)c(C)c(C)c21
4. COc1cccc(C2CCCN2CCN2C(=O)c3ccccc3C2=O)c1 (stereo not given)
5. CCN(C(C)=O)c1cc([N+](=O)[O-])cc([N+](=O)[O-])c1

A)
["98 to 101 °C", "138 to 141 °C", "176 °C", "110 to 111 °C", "98 to 100 °C"]

====

metric_name: melting point

In the examples that follow, each entry is paired with its recorded melting point.
{"columns": ["molecule", "melting point"],
 "data": [
  ["Cc1cc(NCCO)c2[nH]nc(Br)c2n1", "210 to 214 °C"],
  ["NC(=O)C1CCc2cc3c(nc21)CCC3 (stereo not given)", "188 °C"],
  ["CC12CCC3c4ccc(C(=O)O)cc4CCC3C1CCC2C(=O)c1cc(F)cc(F)c1 (stereo not given)", "258 to 261 °C"],
  ["COc1ccc(CCc2ccncc2)c2cc(C#N)nn12", "191 to 192 °C"],
  ["OC(CN1CCC(CCOC(c2ccccc2)c2ccccc2)C(O)C1)c1ccc(F)cc1 (stereo not given)", "84 to 86 °C"],
  ["C=CCn1c(=O)n(-c2ccc3c(c2)OCO3)c2ncc([N+](=O)[O-])cc21", "152 to 153 °C"],
  ["CC(=O)Nc1ccc2ccn(C3CCN(CCc4ccc(F)cc4)CC3)c2c1", "195 to 196 °C"],
  ["Cc1cc(N2CCN(c3ccncc3)CC2)ccc1OCCCC(=O)O", "261 to 262 °C"]
]}

Report melting point for every entry below.
1. CC(N)(C(=O)O)c1ccc(NC=C2C(=O)NC(=O)c3ccc(Br)cc32)cc1 (stereo not given)
2. CCCc1c(C#N)c(C(F)F)nc(C(F)(F)F)c1C(=O)OCC

A)
250 to 253 °C
40 to 41 °C
